Test system: C6
Test: Antimitotic activity against rat C6 cells by [3H]thymidine incorporation assay
Assay type: functional
Details: C6, 24 h, read-out: ID50 (the source's name)
pIC50: −log10 of the molar value.
QUANTITY: pIC50

                                 smiles_str  quantity  measurement
0  CCCCCCCC/C=C\CCCCCCCC(=O)N[C@H]1[C@@H](OCCCCCCCC)O[C@H](COS(=O)(=O)O)[C@@H](O)[C@@H]1O     pIC50         5.25

P. CCCCCCCCCCCCCCCCO[C@H]1O[C@H](COCC(CO)(CO)COS(=O)(=O)O)[C@@H](O)[C@H](O)[C@H]1NC(=O)CCCC
Q. CCCCCCCC/C=C\CCCCCCCC(=O)N[C@H]1[C@@H](OCCCCCCCC)O[C@H](CO)[C@@H](O)[C@@H]1OS(=O)(=O)O
R. CCCCCCCC/C=C\CCCCCCCCO[C@H]1O[C@H](CO)[C@@H](O)[C@H](O)[C@H]1NC(C)=O
## Input List items by pIC50 in falling order. List each label, following the requested order.
## Output R, Q, P
